- Tested on: phosphorylated Akt at serine 473 (pAKTs473) in primary human lung fibroblasts
- experiment-description: Highthroughput phosphorylated Akt (Ser473) in vitro immunoassay (MSD)
- Type: cell-based
- test-parameters: Fibroblast, 1 h compound, PDGF-BB 10 ng/ml for 10 min, mean of multiple experiments, read-out: mean pIC50, inhibition of pAkt (Ser473) (converted)
Give IC50 for every item shown.

phosphorylated Akt at serine 473 (pAKTs473) in primary human lung fibroblasts data for CC[C@H]1COCCN1c1cc(CS(=O)(=O)N(C)C)cc(-c2ccc3[nH]c(CNC)cc3n2)n1 [Example 17] ; its IC50: 2.51 to 10 nM

phosphorylated Akt at serine 473 (pAKTs473) in primary human lung fibroblasts data for CC[C@H]1COCCN1c1cc(C2(S(=O)(=O)N(C)C)CCOCC2)cc(-c2ccc3[nH]c(CNC)cc3n2)n1 [Example 31] ; its IC50: 2.51 to 10 nM

phosphorylated Akt at serine 473 (pAKTs473) in primary human lung fibroblasts data for CC[C@H]1COCCN1c1cc(C(C)(C)S(C)(=O)=O)cc(-c2ccc3[nH]c(CO)cc3n2)n1 [Example 32] ; its IC50: 3.16 to 316 nM

phosphorylated Akt at serine 473 (pAKTs473) in primary human lung fibroblasts data for CNCc1cc2nc(-c3cc(C(C)(C)S(C)(=O)=O)cc(N4CC5CCC(C4)O5)n3)ccc2[nH]1 [Example 4] ; its IC50: 3.16 to 316 nM

phosphorylated Akt at serine 473 (pAKTs473) in primary human lung fibroblasts data for CNCc1cc2nc(-c3cc(CS(C)(=O)=O)cc(N4C5CCC4COC5)n3)ccc2[nH]1 [Example 47] ; its IC50: 3.16 to 316 nM

phosphorylated Akt at serine 473 (pAKTs473) in primary human lung fibroblasts data for CC[C@H]1COCCN1c1cc(C2(S(C)(=O)=O)CCNCC2)cc(-c2ccc3[nH]c(CNC)cc3n2)n1 [Example 24] ; its IC50: 3.16 to 316 nM

phosphorylated Akt at serine 473 (pAKTs473) in primary human lung fibroblasts data for CC[C@H]1COCCN1c1cc(C(C)(C)S(=O)(=O)C2CC2)cc(-c2ccc3[nH]c(CNC)cc3n2)n1 [Example 9] ; its IC50: 3.16 to 316 nM

phosphorylated Akt at serine 473 (pAKTs473) in primary human lung fibroblasts data for CC[C@H]1COCCN1c1cc(C2(S(C)(=O)=O)CCNCC2)cc(-c2ccc3[nH]c(CO)cc3n2)n1 [Example 36] ; its IC50: 3.16 to 316 nM

phosphorylated Akt at serine 473 (pAKTs473) in primary human lung fibroblasts data for CNCc1cc2nc(-c3cc(C4(S(C)(=O)=O)CCOCC4)cc(N4CC5CCC(C4)O5)n3)ccc2[nH]1 [Example 37] ; its IC50: 3.16 to 316 nM

phosphorylated Akt at serine 473 (pAKTs473) in primary human lung fibroblasts data for CNCc1cc2nc(-c3cc(C(C)(C)S(C)(=O)=O)cc(N4C5CCCC4COC5)n3)ccc2[nH]1 [Example 5] ; its IC50: 3.16 to 316 nM

phosphorylated Akt at serine 473 (pAKTs473) in primary human lung fibroblasts data for CCCC1COCCN1c1cc(CS(C)(=O)=O)cc(-c2ccc3[nH]c(CNC)cc3n2)n1 (stereo not drawn) [Example 48] ; its IC50: 3.16 to 316 nM

phosphorylated Akt at serine 473 (pAKTs473) in primary human lung fibroblasts data for CC[C@H]1COCCN1c1cc(CS(=O)(=O)N(C)C)cc(-c2ccc3[nH]c(CO)cc3n2)n1 [Example 35] ; its IC50: 2.51 to 10 nM

phosphorylated Akt at serine 473 (pAKTs473) in primary human lung fibroblasts data for CNCc1cc2nc(-c3cc(CS(C)(=O)=O)cc(N4CC5CCC(C4)O5)n3)ccc2[nH]1 [Example 25] ; its IC50: 3.16 to 316 nM

phosphorylated Akt at serine 473 (pAKTs473) in primary human lung fibroblasts data for CNCc1cc2nc(-c3cc(C(F)(F)S(C)(=O)=O)cc(N4CCOC[C@@H]4C)n3)ccc2[nH]1 [Example 12] ; its IC50: 3.16 to 316 nM

phosphorylated Akt at serine 473 (pAKTs473) in primary human lung fibroblasts data for CC[C@H]1COCCN1c1cc(C2(S(C)(=O)=O)CCOCC2)cc(-c2ccc3[nH]c(CNC)cc3n2)n1 [Example 15] ; its IC50: 2.51 to 10 nM
